Hello, the source for this data is patent EP0556789A2, in case you need it.

- SUBJECT OF TEST: Angiotensin II-Rezeptor (Rattus norvegicus, UniProt P25095)
- Sequence (P25095 1-359): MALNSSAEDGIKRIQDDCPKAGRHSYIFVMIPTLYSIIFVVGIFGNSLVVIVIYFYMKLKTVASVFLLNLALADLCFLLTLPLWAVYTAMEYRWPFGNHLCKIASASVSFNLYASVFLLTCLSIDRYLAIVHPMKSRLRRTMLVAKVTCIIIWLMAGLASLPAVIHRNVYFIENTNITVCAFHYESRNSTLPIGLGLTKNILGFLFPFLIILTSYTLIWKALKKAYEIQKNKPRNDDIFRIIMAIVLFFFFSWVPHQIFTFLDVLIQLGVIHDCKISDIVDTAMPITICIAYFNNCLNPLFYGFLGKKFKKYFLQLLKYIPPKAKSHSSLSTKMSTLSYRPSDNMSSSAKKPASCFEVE
RECORDED METRIC: IC50 (nM)

- MOLECULE SMILES: "CCCc1nc2c(C)cccc2n1Cc1ccc(-c2ccccc2)c(Cc2nnn[nH]2)c1"
  VAL: 370
